Where these numbers come from: patent US9365830B2

# System: undifferentiated hESCs growing in adherent culture
# experimental.protocol: EC50 of cytotoxic effect on undifferentiated hESCs in adherent culture, real-time impedance assay
# Type: cell-based, human
# condition.summary: Homo sapiens, read-out: EC50 concentrations for hES cells (cytotoxic effect)

{"columns": ["compound", "EC50, nM"],
 "data": [
  ["COc1ccc2c(c[n+](C)c3c4cc5c(cc4ccc23)OCO5)c1OC [Chelerythrine chloride]", 1400],
  ["O=C(O)C=Cc1ccc(O)c(O)c1 [caffeic acid, 3,4-dihydroxycinnamic acid]", 100]
]}
